FYI, the data here is from patent US20230090014A1.

Target: T1, CD47 on the surface of CHO-K1-E5 cells (human, UniProt Q08722 19-323)
T1 construct: Full length CD47 expressed from pTargeT-CD47 in CHO-K1 cells; also called CD47 on cell surface; CHO-K1-hCD47
Experiment: cell based ELISA on fixed CHO-K1-E5 cells, anti-human IgG HRP, OD450
Metric: EC50 (read off the curve)

What value of measured EC50 (read off the curve) is listed for AB6.12-IgG4P (antibody, V domains shown, Anti-CD47 control antibody from WO2013/119714; also called AB06.12-4P; AB06.12-P) VH: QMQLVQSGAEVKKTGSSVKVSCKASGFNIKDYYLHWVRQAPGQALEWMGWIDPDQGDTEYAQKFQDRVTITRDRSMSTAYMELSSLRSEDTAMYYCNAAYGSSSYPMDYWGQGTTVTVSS VL: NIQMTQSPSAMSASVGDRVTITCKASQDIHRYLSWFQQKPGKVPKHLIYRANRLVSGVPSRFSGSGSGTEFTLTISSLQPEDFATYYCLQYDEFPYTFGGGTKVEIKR ?
~0.1 nM
